Hello, the source for this data is a melting point compilation (Tetko et al.; mined from patent text by program, amines drawn as free bases though some values may be those of a salt), in case you need it.

Below: a set of entries, each annotated with reported melting point.

>  <compound>
N#Cc1c(O)ccc2oc(-c3ccc(O)cc3)cc12

>  <measured.quantity>
melting point

>  <measurement>
> 230 °C

$$$$
>  <compound>
CCC(C)Nc1cc(-c2ccc(Cl)cc2)nc2nn(C)cc12 (stereo not given)

>  <measured.quantity>
melting point

>  <measurement>
208 to 209 °C

$$$$
>  <compound>
CCOC(=O)c1ccc(Cn2cnc3ncccc32)cc1

>  <measured.quantity>
melting point

>  <measurement>
142 to 143 °C

$$$$
>  <compound>
COCCN1CC(c2ccccc2)NC1=S (stereo not given)

>  <measured.quantity>
melting point

>  <measurement>
76 to 78 °C

$$$$

Ask: # query: melting point of entry C[C@H]1NC(C)(C)CO[C@]1(O)c1cccc(Cl)c1
Result: 128 to 131 °C

Ask: Also check CC(c1ccc2c(c1)N(C)c1cc(Cl)ccc1S2)N(O)C(N)=O (stereo not given)
Result: 176 to 177 °C

Ask: Also check COc1ccc(C2=NN(Cc3ccccc3Cl)C(=O)[C@H]3CCCC[C@@H]23)cc1OC (relative stereo)
Result: 101 to 104 °C

Ask: Also check CC(=O)C1=C(O)C(=C(C)Nc2ccccc2)C(=O)OC1=O
Result: 184 to 186 °C

Ask: Also check COC(=O)c1ccc(Br)c(CBr)c1
Result: 100 to 101 °C

Ask: Also check FC(F)(F)c1cccc(C2=NOC(CNC(=S)N3CCOCC3)C2)c1 (stereo not given)
Result: 118 to 120 °C

Ask: Also check c1cncc(-c2nc(COc3ccc(CCCn4ccnc4)cc3)cs2)c1
Result: 67 to 68 °C

Ask: Also check COc1ccc2c(c1)CCc1cc(Nc3ccc(F)cc3F)ccc1C2=O
Result: 157 °C

Ask: Also check COC(=O)COc1ccc(C(=O)CC2CCN(c3ccncc3)CC2)cc1
Result: 137 to 138 °C

Ask: Also check Cc1cccc2c1C(=O)N(C1CCC(=O)NC1=O)C2=O (stereo not given)
Result: 290 to 292 °C

Ask: Also check O=C(c1c[nH]c2c1ccc1c3ccccc3[nH]c12)C(F)(F)F
Result: > 295 °C

Ask: Also check CN1Cc2c(-c3noc(CCl)n3)ncn2-c2cccc(Br)c2C1=O
Result: 242 to 244 °C

====

measured.quantity: melting point

>  <molecule>
Cc1ccc(CCC(=O)NC(C)c2ccc(NS(C)(=O)=O)c(F)c2)cc1C (centres undefined)

>  <measured.quantity>
melting point

>  <measurement>
176 to 177 °C

$$$$
>  <molecule>
CCCCCCCCCCCCCCCCCCNC(=O)OC[C@@H]1OCCC[C@H]1O (relative stereo)

>  <measured.quantity>
melting point

>  <measurement>
55 to 56 °C

$$$$
>  <molecule>
Nc1cccc2c(-c3ccc(=O)[nH]n3)c(-c3ccccc3)nn12

>  <measured.quantity>
melting point

>  <measurement>
157 to 159 °C

$$$$

Ask: # query: melting point of entry O=C1Nc2cc(Cl)ccc2OC1CCO (centres undefined)
Result: 135 to 138 °C

====

measured.quantity: melting point

Use these answered entries as a reference point.
>  <molecule>
O=C(/C=C/C=C(c1cccc(C(F)(F)F)c1)c1cccc(C(F)(F)F)c1)NCCCCc1cccnc1

>  <measured.quantity>
melting point

>  <measurement>
89 to 90 °C

$$$$
>  <molecule>
CSC(=N[N+](=O)[O-])NCc1ccccc1

>  <measured.quantity>
melting point

>  <measurement>
77 to 80 °C

$$$$

Ask: # query: melting point of entry O=C(O)c1ccc(-c2n[nH]c(-c3ccccc3)n2)cc1
Result: > 300 °C

Ask: Also check O=C(O)C(OCCC1CCN(c2ccncc2)CC1)Oc1ccccc1 (configuration not stated)
Result: 247 to 249 °C

Ask: Also check CCOCc1nc2c(N)nc3cccnc3c2n1CC1(O)CCC1
Result: 162 to 163 °C

Ask: Also check CC(C)CC(NC(=O)N1CCCCCC1)C(=O)NC(Cc1ccc(C#Cc2ccccc2)cc1)C(=O)NC(C)(C)C (configuration not stated)
Result: 115 to 117 °C

Ask: Also check CCCCCCC(=O)c1cn(CCCC(=O)O)c2ccccc12
Result: 58 to 60 °C

====

Below: a set of entries, each annotated with reported melting point.

>  <molecular.string>
Cc1ccc2c(c1)C1(OCCO1)C1(CCC(=O)CC1)C2

>  <measured.quantity>
melting point

>  <measurement>
116 to 118 °C

$$$$
>  <molecular.string>
CCN(CC)C(=O)Cn1c(-c2ccc(C(F)(F)F)cc2)nc2cccnc21

>  <measured.quantity>
melting point

>  <measurement>
140 to 142 °C

$$$$

Attention now shifts to the item below.
Ask: # query: melting point of entry Cn1c(C(F)(F)F)cc(=O)n(-c2cc(OCc3ccccc3Cl)c(Cl)cc2F)c1=O
Result: 126 to 129 °C

====

Below: a set of entries, each annotated with reported melting point.

Use these answered entries as a reference point.
>  <molecule>
COC(=O)C1Cc2c(OC)cccc2N1S(=O)(=O)c1ccc(-c2ccc(F)cc2Cl)cc1 (configuration not stated)

>  <melting point>
80 °C

$$$$
>  <molecule>
c1ccc2c(c1)[nH]c1nc(N3CCCC3)nc(N3CCCC3)c12

>  <melting point>
209 to 211 °C

$$$$

Attention now shifts to the item below.
Ask: # query: melting point of entry Cc1ccc(Oc2ccc(C(=N)NN)cc2)c(O)c1
Result: > 260 °C

====

measured.quantity: melting point

Use these answered entries as a reference point.
>  <molecule>
NC(=O)[C@H](Cc1ccccc1)N1C(=O)c2ccccc2C1=O

>  <melting point>
211 to 215 °C

$$$$
>  <molecule>
O=C(O)CCCCCN1CCCCC1

>  <melting point>
74 to 76 °C

$$$$
>  <molecule>
NC(=O)C(c1ccccc1)(c1ccccc1)[C@@H]1CCNC1

>  <melting point>
128 to 132 °C

$$$$
>  <molecule>
CS(=O)(=O)N(CCc1ccc(Cl)cc1)Cc1cccnc1

>  <melting point>
77 to 78 °C

$$$$
>  <molecule>
O=C(Nc1ccccc1)NC(Cc1c[nH]c2ccccc12)C(=O)NCc1cc(C(F)(F)F)cc(C(F)(F)F)c1 (configuration not stated)

>  <melting point>
219 to 221 °C

$$$$
>  <molecule>
CS(=O)c1cccc(-n2cnc(-c3ccc(F)cc3)c2-c2ccncc2)c1 (configuration not stated)

>  <melting point>
233 to 234 °C

$$$$
>  <molecule>
O=C(Nc1cccc(C(F)(F)F)c1)c1cccnc1NCc1ccc(=O)[nH]c1

>  <melting point>
200 to 202 °C

$$$$
>  <molecule>
C=CC1C2OCC(O2)C(OCc2ccccc2)C1O (configuration not stated)

>  <melting point>
88 to 91 °C

$$$$
>  <molecule>
O=C(Nc1ccc(F)cc1)Nc1cccc(OCc2ccccc2)c1

>  <melting point>
187 to 189 °C

$$$$
>  <molecule>
CC(C)(C)c1cc(Cl)cc(CO[C@H]2CCCN(Cc3nc(=O)[nH][nH]3)[C@H]2c2ccccc2)c1

>  <melting point>
181 to 182 °C

$$$$

Ask: # query: melting point of entry O=C(c1ccc2c(=O)n(CCCCN3CC=C(c4ccccc4)CC3)c(=O)[nH]c2c1)N1CCOCC1
Result: 206 to 210 °C

Ask: Also check CC(C)(C)S(=O)(=O)c1ccc(C(=O)O)c(Cl)c1
Result: 181 to 182 °C

====

Below: a set of entries, each annotated with reported melting point.

Ask: # query: melting point of entry N#CC1=C(c2cccs2)Nc2n[nH]cc2C1c1cccc(C#N)c1Br (stereo not drawn)
Result: > 280 °C

Ask: Also check Cc1oc(-c2ccccc2)nc1COc1ccc2c(c1)CCC(C=O)=C2
Result: 114 to 115 °C

====

Below: a set of entries, each annotated with reported melting point.

Use these answered entries as a reference point.
>  <compound>
CS(=O)c1ccc(C2ON2S(=O)(=O)c2ccccc2)cc1 (configuration not stated)

>  <melting point>
115 to 118 °C

$$$$
>  <compound>
COC(=O)c1cc(N)nc(-c2ccc(Cl)c(OC)c2F)n1

>  <melting point>
188 to 190 °C

$$$$
>  <compound>
C#Cc1cccc(C(=O)OCc2ccccc2)c1N

>  <melting point>
42 to 43 °C

$$$$
>  <compound>
Cn1ccc(=O)c2cc(F)ccc21

>  <melting point>
88 to 89 °C

$$$$
>  <compound>
C#CCCCCn1ncc2c(N)c(C(=O)OCC=C)c(C)nc21

>  <melting point>
69 to 70 °C

$$$$

Ask: # query: melting point of entry CCOC(=O)C1=C(C)NC(C)=C(C(=O)OCCOC)C1c1cccc([N+](=O)[O-])c1 (configuration not stated)
Result: 108 °C

Ask: Also check CN(Cc1ccc(NC(=O)C2=Cc3cc(-c4ccc(OCC(N)=O)cc4)ccc3S(=O)(=O)CC2)cc1)C1CCOCC1
Result: 240 to 243 °C

Ask: Also check COc1ccc2ccc(O)c(Cl)c2c1
Result: 76 to 78 °C

Ask: Also check CC(C)(C)c1cc(C(=O)COc2ccc(C(=O)O)c(O)c2)cc(C(C)(C)C)c1O
Result: 164 to 165 °C

Ask: Also check O=C(CS(=O)CCNC(=O)c1ccco1)NCCCOc1cccc(CN2CCCCC2)c1 (configuration not stated)
Result: 101 to 102 °C

Ask: Also check CCOC(=O)C1CCNCC1c1nc2cc(-c3ccc(OC)cc3)nnc2c2ccccc12 (configuration not stated)
Result: 160 to 161 °C

Ask: Also check C[C@H](NC(=O)CC1CCC(=O)CC1)c1ccccc1
Result: 110 to 151 °C

Ask: Also check O=C1c2ccccc2C(=O)N1CC1CN(Cc2ccccc2)CCN1Cc1ccccc1 (configuration not stated)
Result: 124 °C

Ask: Also check Nc1ccccc1NCC12CC3CC(CC(C3)C1)C2
Result: 101 to 104 °C

Ask: Also check O=C(NCCCCOc1ccc(-n2ccnc2)cc1)c1ccc(F)cc1
Result: 122 to 123 °C

Ask: Also check O=S(=O)(NC1CCN(C2CCCCC2)CC1)c1ccc(Nc2ccnc3cc(Cl)ccc23)cc1
Result: 192 to 193 °C

Ask: Also check COC(=O)CSCc1cnc(OC)c([N+](=O)[O-])c1
Result: 57 to 60 °C

Ask: Also check CC(C)(C)c1cc(CCc2ccccc2NC(=O)NC2CCCCCCC2)cc(C(C)(C)C)c1O
Result: 174 to 176 °C

Ask: Also check O=C(O)c1cccc2cc(Sc3cc(Cl)ncn3)ccc12
Result: 209 °C

Ask: Also check C#CCOc1cc(Oc2ccccc2)ncn1
Result: 71.1 °C

Ask: Also check COC(=O)C(=CNc1ccnc(-c2ccncc2)n1)C(=O)OC
Result: 209 to 211 °C

Ask: Also check CN(C1=NC(=O)CS1)c1ccc(C(O)(C(F)(F)F)C(F)(F)F)cc1
Result: 240 to 242 °C

Ask: Also check Cn1ccc2cc(Nc3cnccc3N)ccc21
Result: 167 to 169 °C

Ask: Also check N#Cc1ccsc1C1=CC(=O)Nc2cc(-c3ccccc3F)ccc2N1
Result: 238 to 240 °C

Ask: Also check Cc1cccc(C)c1Nc1c(-c2c(Cl)cccc2OCC(N)=O)nc2ccc(F)cn12
Result: 186 to 187 °C

Ask: Also check CC(C)(Oc1ccc(CN(Cc2ccccc2)c2ccc(Cl)cc2)cc1)C(=O)O
Result: 65 to 67 °C

Ask: Also check CC1(C)OCC(CO)(CO)CO1
Result: 124 to 126 °C
